- System: EKVX NSCLC
- measurementProtocol: NCI-60 one-dose screen, 48 h
- measurementSetup: 10 µM unless noted
Compounds without any hit were thinned out: in the full panel of roughly 83,000, 20% have a hit. The source made the active and inactive calls. The calls were made as follows: active = growth percent below 10; inactive = the rest.
Use one of these outcomes when replying: y = active, n = inactive

Problem: For N=C(N)c1ccc(-c2ccc(-c3ccc(Cl)c(Cl)c3)o2)cc1 , what call appears in the results of this test?
Solution: n

Problem: I would be grateful if you could indicate the recorded call for CN(C)S(=O)(=O)n1cnc([C@@H]2[C@@H]3C(=O)OC[C@@H]3C[C@]23N=CN(Cc2ccccc2)C3=O)c1 .
Solution: n

Problem: What outcome does the record of this test show for O=c1[nH]nc(-c2ccc(Cl)cc2)cc1Cc1ccccc1 ?
Solution: n

Problem: Hi team, can someone confirm the assay call for CCCCOc1nc2ccc(Cl)cc2cc1/C=C/C(=O)/C=C1/CC(c2cc3cc(Cl)ccc3nc2OCCCC)Nc2ccccc2N1 (stereo not drawn) ?
Solution: n

Problem: What outcome does the record of this test show for CN(C)CCC(O)(Cc1ccccc1)c1ccccc1 (stereo not drawn) ?
Solution: n

Problem: Please let me know the test result on file for Cc1cnc(Nc2ccc(N3CCN(C)CC3)cc2)nc1Nc1ccc(Cl)c(NS(=O)(=O)C(C)(C)C)c1 .
Solution: n

Problem: Would you mind telling me which call this test gave CC1=CC(=O)C(C(C)C)=CC1=Nc1cc(Br)c(O)c(Br)c1 ?
Solution: n

Problem: Which outcome did this test record for the compound CN1CCN(C2=C(Cl)C(=O)c3ccccc3C2=O)CC1 ?
Solution: n

Problem: State the result this test recorded for O=C(NCCOCCOCCNc1cccc2c1C(=O)N(C1CCCNC1=O)C2=O)c1cc2c(o1)C(=O)c1ccccc1C2=O (stereo not drawn) .
Solution: n

Problem: Which outcome was assigned to C=C(CNCCc1ccc(O)cc1)[C@@H]1CC[C@]2(COC3CCCCO3)CC[C@]3(C)[C@H](CC[C@@H]4[C@@]5(C)CCC(N)C(C)(C)[C@@H]5CC[C@]43C)[C@@H]12 (stereo partly drawn) in this test?
Solution: y

Problem: // param item: C=C1C(=O)O[C@H]2[C@H]1CC/C(Cn1cc(CNCCc3c[nH]c4ccc(Cl)cc34)nn1)=C\CC[C@@]1(C)O[C@@H]21 ; yields the recorded call
Solution: n

Problem: Recorded call for NC(N)=N/N=C(/c1ccccc1)c1ccc(N)cc1 ?
Solution: n

Problem: Please share the test call associated with CCOC(=O)c1ccc(-c2ccc3cc(OC)ccc3c2)nc1C .
Solution: n

Problem: What did this assay record as the result for N#C/C(=C\c1ccc(Br)cc1)n1nnc2ccccc21 ?
Solution: n
